Recorded inhibition at 25 µM, one value per entry.
- Test system: HaCaT keratinocytes
- assay-summary: Influence of compounds on keratinocyte proliferation (Cell Titer Viability Assay)
- Assay type: cell-based
- recorded-conditions: Homo sapiens, 25 μM test compound, 48 hrs, compared to control experiments
experimental-endpoint: inhibition at 25 µM

| compound | assay-value |
| --- | --- |
| O=C(c1ccco1)N1c2ccccc2-c2ccccc2C1c1c[nH]c2ccccc12 (centres unmarked) | > 50% |
| O=C(CCc1ccccc1)N1c2ccccc2-c2ccccc2C1c1c[nH]c2ccccc12 (centres unmarked) | > 50% |
| O=C(c1cccnc1Cl)N1c2ccccc2-c2ccccc2C1c1c[nH]c2ccccc12 (centres unmarked) | > 50% |
| O=C(c1ccc(C(F)(F)F)cc1)N1c2ccccc2-c2ccccc2C1c1c[nH]c2ccccc12 (centres unmarked) | > 50% |
| O=C(CCC1CCCCC1)N1c2ccccc2-c2ccccc2C1c1c[nH]c2ccccc12 (centres unmarked) | > 50% |
| CC(C)C(=O)N1c2ccccc2-c2ccccc2C1c1c[nH]c2ccccc12 (centres unmarked) | > 50% |
| Cc1ccc(S(=O)(=O)N2CC(=O)c3ccccc3-c3ccccc32)cc1 | > 50% |
| O=C(c1cccc(C(F)(F)F)c1)N1c2ccccc2-c2ccccc2C1c1c[nH]c2ccccc12 (centres unmarked) | > 50% |
| CC(=O)N1c2ccccc2-c2ccccc2C1c1c[nH]c2ccccc12 (centres unmarked) | > 50% |
| O=C(c1cccc(F)c1)N1c2ccccc2-c2ccccc2C1c1c[nH]c2ccccc12 (centres unmarked) | > 50% |
| CCCC(C)C(=O)N1c2ccccc2-c2ccccc2C1c1c[nH]c2ccccc12 (centres unmarked) | > 50% |
| O=C(C1CCC1)N1c2ccccc2-c2ccccc2C1c1c[nH]c2ccccc12 (centres unmarked) | > 50% |
| COC(=O)N1c2ccccc2-c2ccccc2C1c1c[nH]c2ccccc12 (centres unmarked) | > 50% |
| O=C(c1ccccc1)N1c2ccccc2-c2ccccc2C1c1c[nH]c2ccccc12 (centres unmarked) | > 50% |
| O=C(c1ccc(Cl)nc1)N1c2ccccc2-c2ccccc2C1c1c[nH]c2ccccc12 (centres unmarked) | > 50% |
| CN(C)c1ccc(C(=O)N2c3ccccc3-c3ccccc3C2c2c[nH]c3ccccc23)cc1 (centres unmarked) | > 50% |
| O=C(c1cc(C(F)(F)F)cc(C(F)(F)F)c1)N1c2ccccc2-c2ccccc2C1c1c[nH]c2ccccc12 (centres unmarked) | > 50% |
